system: Jurkat; assay: Activity on rosetting of jurkat T-cells with SRBC at the concentration of 10e-6 M; Not significant; format: functional, cell-based; details: Homo sapiens
Activity calls are given as the source filed them. The rule behind the calls is not given here. Square brackets hold non-standard residues; d marks the D form. Peptide text beside a SMILES is read from it. Orn = NCCC[C@H](N)C(=O)O
Measured Parameter: inhibition

Reference set, count: 4
>>> df
                                   compound  target_system  measured_parameter  reported_value
0  CC(=O)N[C@@H](CO)C(=O)N[C@H](CC(=O)O)C(=O)N[C@@H](CCCCN)C(=O)N1CCC[C@H]1C(=O)O         Jurkat          inhibition        inactive
1  CC(=O)N[C@@H](CO)C(=O)N[C@@H](CC(=O)O)C(=O)N[C@@H](CCCN)C(=O)N1CCC[C@H]1C(=O)O (Ac-SD[Orn]P-OH)         Jurkat          inhibition        inactive
2  N[C@@H](CO)C(=O)N[C@@H](CC(=O)O)C(=O)O (H-Ser-Asp-OH)         Jurkat          inhibition        inactive
3  CC(=O)N[C@@H](C)C(=O)N[C@@H](CC(=O)O)C(=O)N[C@@H](CCCCN)C(=O)N1CCC[C@H]1C(=O)O (Ac-ADKP-OH)         Jurkat          inhibition        inactive

Here's the next entry for you.
Problem: Provide only the value of recorded inhibition for CC(=O)N[C@@H](CO)C(=O)N[C@@H](CC(=O)O)C(=O)N[C@@H](CCCCN)C(=O)N1CCC[C@H]1C(=O)O (stereo in doubt; form 2)
Result: inactive

---

system: Jurkat; assay: Activity on rosetting of jurkat T-cells with SRBC at the concentration of 10e-4 M; format: functional, Homo sapiens
Square brackets hold non-standard residues; d marks the D form. Peptide text beside a SMILES is read from it. Orn = NCCC[C@H](N)C(=O)O
Listed here are molecules together with their documented No. of rosettes/100 Jurkat T cells.
No unit in the answer, please; the number alone is enough.

Reference set, count: 5
>>> df
                                   molecule  target_system                  measured_parameter  reported_value
0  NCCCC[C@H](NC(=O)[C@H](CC(=O)O)NC(=O)[C@@H](N)CO)C(=O)O (H-Ser-Asp-Lys-OH)         Jurkat  No. of rosettes/100 Jurkat T cells              38
1  CC(=O)N[C@@H](CO)C(=O)N[C@H](CC(=O)O)C(=O)N[C@@H](CCCCN)C(=O)N1CCC[C@H]1C(=O)O         Jurkat  No. of rosettes/100 Jurkat T cells              48
2  CC(=O)N[C@@H](CO)C(=O)N[C@@H](CC(=O)O)C(=O)N[C@@H](CCCCN)C(=O)N1CCC[C@H]1C(=O)O (stereo in doubt; form 2) [GORALATIDE]         Jurkat  No. of rosettes/100 Jurkat T cells              80
3  CC(=O)N[C@@H](CO)C(=O)N[C@@H](CC(=O)O)C(=O)N[C@@H](CCCN)C(=O)N1CCC[C@H]1C(=O)O (Ac-SD[Orn]P-OH)         Jurkat  No. of rosettes/100 Jurkat T cells              54
4  CC(=O)N[C@@H](CO)C(=O)N[C@@H](CC(=O)O)C(=O)N[C@@H](CCCCN)C(=O)N1CCC[C@H]1C(=O)O (stereo in doubt; form 1) [GORALATIDE]         Jurkat  No. of rosettes/100 Jurkat T cells              33

Here's the next entry for you.
Problem: Provide only the value of recorded No. of rosettes/100 Jurkat T cells for CC(=O)N[C@@H](CO)C(=O)N[C@@H](CC(=O)O)C(=O)N[C@@H](CCCCN)C(=O)O (Ac-Ser-Asp-Lys-OH)
Result: 35

FYI, the data here is from ChEMBL document CHEMBL1124866.
